Hello, the source for this data is the kinase profiling compilation of Christmann-Franck et al. (2016), in case you need it.

Target: UniProt O75116
Sequence (O75116 whole entry, looked up): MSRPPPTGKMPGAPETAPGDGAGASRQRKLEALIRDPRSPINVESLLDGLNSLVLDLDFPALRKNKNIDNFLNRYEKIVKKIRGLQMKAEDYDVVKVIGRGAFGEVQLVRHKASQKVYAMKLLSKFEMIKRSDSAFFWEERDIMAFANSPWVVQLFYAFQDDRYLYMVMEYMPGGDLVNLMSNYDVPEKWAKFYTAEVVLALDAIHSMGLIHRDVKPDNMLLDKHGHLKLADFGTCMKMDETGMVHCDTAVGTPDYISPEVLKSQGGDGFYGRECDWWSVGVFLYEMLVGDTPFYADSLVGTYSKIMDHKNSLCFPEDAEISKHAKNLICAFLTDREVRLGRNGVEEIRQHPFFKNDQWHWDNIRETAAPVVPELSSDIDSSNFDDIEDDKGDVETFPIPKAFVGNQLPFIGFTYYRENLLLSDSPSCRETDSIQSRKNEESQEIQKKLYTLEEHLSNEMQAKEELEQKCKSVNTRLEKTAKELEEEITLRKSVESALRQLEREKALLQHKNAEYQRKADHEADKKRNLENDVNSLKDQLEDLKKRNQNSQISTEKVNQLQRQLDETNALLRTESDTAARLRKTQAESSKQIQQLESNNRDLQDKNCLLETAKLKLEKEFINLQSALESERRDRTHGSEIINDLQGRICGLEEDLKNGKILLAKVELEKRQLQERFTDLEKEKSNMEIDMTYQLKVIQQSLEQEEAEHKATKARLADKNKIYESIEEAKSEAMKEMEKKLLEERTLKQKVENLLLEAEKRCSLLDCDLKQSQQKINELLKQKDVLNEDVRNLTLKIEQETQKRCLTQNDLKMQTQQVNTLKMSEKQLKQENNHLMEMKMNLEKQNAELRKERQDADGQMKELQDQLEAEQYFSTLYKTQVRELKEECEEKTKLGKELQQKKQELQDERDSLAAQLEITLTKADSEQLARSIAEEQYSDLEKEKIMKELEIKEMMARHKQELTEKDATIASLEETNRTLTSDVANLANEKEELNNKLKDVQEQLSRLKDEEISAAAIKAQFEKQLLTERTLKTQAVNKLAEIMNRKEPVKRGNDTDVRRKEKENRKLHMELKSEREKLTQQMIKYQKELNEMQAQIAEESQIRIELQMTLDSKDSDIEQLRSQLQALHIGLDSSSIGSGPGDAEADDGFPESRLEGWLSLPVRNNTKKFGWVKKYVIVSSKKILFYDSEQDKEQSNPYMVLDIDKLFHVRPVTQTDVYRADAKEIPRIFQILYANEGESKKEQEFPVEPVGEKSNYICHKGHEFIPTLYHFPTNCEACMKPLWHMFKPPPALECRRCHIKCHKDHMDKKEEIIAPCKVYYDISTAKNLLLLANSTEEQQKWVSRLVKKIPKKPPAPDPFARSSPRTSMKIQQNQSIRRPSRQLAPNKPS
Assay: radiometric filter-binding kinase assay, Kinase HotSpot
Settings: compound 0.5 µM; ATP 10 µM
reportedMetric: residual activity (%)

>>> observed("COc1ccc2c(c[n+](C)c3c4cc5c(cc4ccc23)OCO5)c1OC")
92.5
>>> observed("Nc1ncnc2[nH]nc(Nc3ccc(F)cc3)c12")
92.1
>>> observed("O=C1Nc2ccc(Cl)cc2/C1=C/c1cc(Cl)c(O)c(Cl)c1")
90.6
>>> observed("COc1cc2ncnc(Nc3cccc(Cl)c3)c2cc1OC")
92.6
>>> observed("O=C1NC(=O)/C(=C/c2ccc3c(c2)OC(F)(F)O3)S1")
92.4
>>> observed("Cc1ccc(Nc2nccc(N(C)c3ccc4c(C)n(C)nc4c3)n2)cc1S(N)(=O)=O")
91.1

###

Biological target: PRKACG (human) (UniProt P22612)
Sequence (P22612 whole entry, looked up): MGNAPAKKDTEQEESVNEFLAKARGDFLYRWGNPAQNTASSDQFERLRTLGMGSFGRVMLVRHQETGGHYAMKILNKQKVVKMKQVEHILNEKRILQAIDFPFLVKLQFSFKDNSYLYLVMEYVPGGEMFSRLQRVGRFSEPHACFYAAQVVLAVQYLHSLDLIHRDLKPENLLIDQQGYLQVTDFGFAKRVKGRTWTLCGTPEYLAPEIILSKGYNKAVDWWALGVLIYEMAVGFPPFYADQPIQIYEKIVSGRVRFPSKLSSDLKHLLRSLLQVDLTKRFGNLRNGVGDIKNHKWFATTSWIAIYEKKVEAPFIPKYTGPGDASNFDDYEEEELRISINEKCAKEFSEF
Experiment: radiometric filter-binding kinase assay, Kinase HotSpot
Settings: compound 0.5 µM; ATP 10 µM
Entries annotated with measured residual activity
reportedMetric: residual activity (%)

>>> observed("Cc1[nH]c(/C=C2\\C(=O)Nc3ccc(S(=O)(=O)N(C)c4cccc(Cl)c4)cc32)c(C)c1C(=O)N1CCN(C)CC1")
111
>>> observed("Oc1cccc(-c2nc(N3CCOCC3)c3oc4ncccc4c3n2)c1")
101
>>> observed("O=C1NC(=O)/C(=C/c2ccc3c(c2)OC(F)(F)O3)S1")
102
>>> observed("N#C/C(=C(/N)Sc1ccc(N)cc1)c1ccccc1C(F)(F)F")
101
>>> observed("Cc1ccc(Nc2nccc(N(C)c3ccc4c(C)n(C)nc4c3)n2)cc1S(N)(=O)=O")
111
>>> observed("O=C1Nc2ccc(Cl)cc2/C1=C/c1cc(Cl)c(O)c(Cl)c1")
99.2
>>> observed("CC(C)N(CCC(=O)c1ccc2ccccc2c1)Cc1ccccc1")
107
>>> observed("CCN(CC)CCNC(=O)c1c(C)[nH]c(/C=C2\\C(=O)Nc3ccc(Cl)cc32)c1C")
101
>>> observed("CNC(=O)c1cc(Oc2ccc(NC(=O)Nc3ccc(Cl)c(C(F)(F)F)c3)cc2)ccn1")
100
>>> observed("Nc1ncnc2[nH]nc(Nc3ccc(F)cc3)c12")
96.2

###

Target: WEE1 (human) (UniProt P30291)
Sequence (P30291 whole entry, looked up): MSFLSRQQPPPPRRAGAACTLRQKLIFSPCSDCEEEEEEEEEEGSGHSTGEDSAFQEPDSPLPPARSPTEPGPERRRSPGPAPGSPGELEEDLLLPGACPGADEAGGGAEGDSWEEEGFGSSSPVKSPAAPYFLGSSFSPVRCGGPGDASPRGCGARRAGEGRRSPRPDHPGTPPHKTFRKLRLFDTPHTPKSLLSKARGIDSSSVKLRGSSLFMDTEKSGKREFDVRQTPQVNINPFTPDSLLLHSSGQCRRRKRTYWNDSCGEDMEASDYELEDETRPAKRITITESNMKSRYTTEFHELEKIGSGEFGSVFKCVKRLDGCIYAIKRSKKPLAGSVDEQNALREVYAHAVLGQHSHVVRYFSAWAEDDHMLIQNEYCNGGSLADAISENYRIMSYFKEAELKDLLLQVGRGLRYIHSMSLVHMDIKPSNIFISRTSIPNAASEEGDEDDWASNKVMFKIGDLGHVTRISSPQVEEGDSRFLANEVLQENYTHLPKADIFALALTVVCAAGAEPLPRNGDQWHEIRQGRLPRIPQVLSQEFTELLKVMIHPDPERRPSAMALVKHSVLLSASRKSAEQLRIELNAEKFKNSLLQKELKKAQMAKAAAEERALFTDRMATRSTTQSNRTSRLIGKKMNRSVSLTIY
Assay: radiometric filter-binding kinase assay, Kinase HotSpot
Details: compound 0.5 µM; ATP 10 µM
Short version: residual activity at least 90% is 1 (yes), less is 0 (no).

>>> labelvalue("CNc1cc2c(Nc3cccc(Br)c3)ncnc2cn1")
"0 (no)"
>>> labelvalue("O=S(=O)(c1cccc2cnccc12)N1CCCNCC1")
"1 (yes)"
>>> labelvalue("CNC(=O)c1cc(Oc2ccc(NC(=O)Nc3ccc(Cl)c(C(F)(F)F)c3)cc2)ccn1")
"1 (yes)"
>>> labelvalue("Nc1ccc2ncnc(NCCc3ccc(Oc4ccccc4)cc3)c2c1")
"0 (no)"

###

Molecular target: FLT3 (human) (UniProt P36888)
Sequence (P36888 whole entry, looked up): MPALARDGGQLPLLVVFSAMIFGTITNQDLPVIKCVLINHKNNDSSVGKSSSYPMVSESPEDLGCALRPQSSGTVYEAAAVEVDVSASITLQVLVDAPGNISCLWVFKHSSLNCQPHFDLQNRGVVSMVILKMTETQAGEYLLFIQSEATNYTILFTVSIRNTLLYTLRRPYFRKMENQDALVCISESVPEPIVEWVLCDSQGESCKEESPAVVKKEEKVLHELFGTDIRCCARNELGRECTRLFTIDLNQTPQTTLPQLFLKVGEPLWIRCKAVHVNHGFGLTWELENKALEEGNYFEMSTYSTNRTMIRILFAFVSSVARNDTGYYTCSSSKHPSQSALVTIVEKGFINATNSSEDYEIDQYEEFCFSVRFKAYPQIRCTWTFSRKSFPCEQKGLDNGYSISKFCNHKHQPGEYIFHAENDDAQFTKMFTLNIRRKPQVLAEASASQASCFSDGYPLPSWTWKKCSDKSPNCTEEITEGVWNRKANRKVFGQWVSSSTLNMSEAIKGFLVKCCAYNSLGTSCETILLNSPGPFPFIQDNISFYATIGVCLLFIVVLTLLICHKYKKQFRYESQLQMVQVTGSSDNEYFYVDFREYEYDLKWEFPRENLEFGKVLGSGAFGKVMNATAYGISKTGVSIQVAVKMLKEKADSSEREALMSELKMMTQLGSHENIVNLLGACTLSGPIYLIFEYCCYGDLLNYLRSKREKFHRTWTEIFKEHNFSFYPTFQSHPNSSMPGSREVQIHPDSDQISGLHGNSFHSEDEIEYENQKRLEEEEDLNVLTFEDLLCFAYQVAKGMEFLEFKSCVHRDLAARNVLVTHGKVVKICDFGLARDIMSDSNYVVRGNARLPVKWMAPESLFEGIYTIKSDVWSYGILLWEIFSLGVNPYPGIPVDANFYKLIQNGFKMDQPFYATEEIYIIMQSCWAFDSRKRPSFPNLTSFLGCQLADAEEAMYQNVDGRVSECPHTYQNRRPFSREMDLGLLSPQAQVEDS
Experiment: radiometric filter-binding kinase assay, Kinase HotSpot
Details: compound 0.5 µM; ATP 10 µM
Short version: residual activity at least 80% is YES, less is NO.

>>> labelvalue("Cc1[nH]c(/C=C2\\C(=O)Nc3ccc(S(=O)(=O)N(C)c4cccc(Cl)c4)cc32)c(C)c1C(=O)N1CCN(C)CC1")
"NO"
>>> labelvalue("O=C1NC(=O)C(c2cn(CCCn3ccnc3)c3ccccc23)=C1Nc1ccccc1")
"NO"
>>> labelvalue("O=C1NC(=O)/C(=C/c2ccc3c(c2)OC(F)(F)O3)S1")
"YES"
>>> labelvalue("O=C(Nc1cccc(Nc2nccc(Nc3cccc(C(F)(F)F)c3)n2)c1)C1CC1")
"NO"
>>> labelvalue("CCN(CC)CCNC(=O)c1c(C)[nH]c(/C=C2\\C(=O)Nc3ccc(F)cc32)c1C")
"NO"
>>> labelvalue("c1ccc(-c2n[nH]c3c2oc2ccccc23)cc1")
"NO"
>>> labelvalue("O=c1cc(N2CCOCC2)oc2c1ccc1ccccc12")
"YES"
>>> labelvalue("Cc1ccc(Nc2nccc(N(C)c3ccc4c(C)n(C)nc4c3)n2)cc1S(N)(=O)=O")
"NO"
>>> labelvalue("CCN(CC)CCNC(=O)c1c(C)[nH]c(/C=C2\\C(=O)Nc3ccc(Cl)cc32)c1C")
"NO"
>>> labelvalue("COc1ccc(COc2ccc(Cc3cnc(N)nc3N)cc2OC)cc1")
"YES"
